B1: Ribonuclease HI, P0A7Y4 (parent)
chain: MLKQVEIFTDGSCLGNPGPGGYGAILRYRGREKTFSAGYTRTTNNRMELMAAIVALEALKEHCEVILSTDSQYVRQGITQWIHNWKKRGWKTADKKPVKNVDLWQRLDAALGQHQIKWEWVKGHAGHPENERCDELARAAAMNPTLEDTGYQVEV

Variants of: B1
run-parameters: Escherichia coli (strain K12); pH 3; 50.9 °C; Thermal; CD; glycine-HCl 10 mM; NaCl 0.1 M; reversible: yes; structure 2RN2; whole UniProt chain shown
outcome-measure: ddG of mutation (higher = less stable) (kcal/mol)

INSERT INTO assay_data (mutation_id, units_label, observed) VALUES
  ('V74L', 'kcal/mol', -1.1),
  ('D134H', 'kcal/mol', -0.5),
  ('G23A', 'kcal/mol', -0.7),
  ('H62P', 'kcal/mol', -1);
